# Assayed System: Neuropeptide Y receptor type 4 (Homo sapiens, UniProt P50391)
# Sequence (P50391 whole entry): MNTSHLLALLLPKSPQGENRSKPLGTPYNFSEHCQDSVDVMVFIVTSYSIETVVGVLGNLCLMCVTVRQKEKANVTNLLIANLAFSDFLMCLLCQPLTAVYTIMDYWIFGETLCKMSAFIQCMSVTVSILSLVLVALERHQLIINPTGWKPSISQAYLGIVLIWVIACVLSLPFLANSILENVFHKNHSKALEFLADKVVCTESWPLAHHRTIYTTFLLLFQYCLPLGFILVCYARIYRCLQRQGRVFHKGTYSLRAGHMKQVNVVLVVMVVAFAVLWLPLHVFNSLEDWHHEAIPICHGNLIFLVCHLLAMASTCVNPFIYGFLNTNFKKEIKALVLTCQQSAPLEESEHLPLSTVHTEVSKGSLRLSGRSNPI
# Assay Comment: Intrinsic activity at human neuropeptide Y Y4 receptor expressed in HEK293T-ARRB2 cells assessed as stimulation of beta-arrestin 2 recruitment by multimode plate reader relative to hPP
# Type: functional, cell-based
Residues, ends and D or L forms follow the SMILES beside them.
Reported Metric: Intrinsic activity

// Input: N=C(N)NCCC[C@@H]1NC(=O)CCC(=O)NCCCNC(=O)NC(=N)NCCC[C@@H](C(=O)N[C@@H](Cc2c[nH]c3ccccc23)C(=O)N[C@@H](CCCNC(=N)N)C(=O)N[C@@H](Cc2ccc(O)cc2)C(N)=O)NC(=O)[C@H](Cc2ccc(O)cc2)NC1=O (HELM PEPTIDE1{R.Y.[N=C(NCCC[C@H](N[*:1])C(=O)[*:2])N[*:3]].W.R.Y.[am]}|CHEM1{[O=C(CCC(=O)[*:1])NCCCNC(=O)[*:2]]}$PEPTIDE1,CHEM1,1:R1-1:R1|PEPTIDE1,CHEM1,3:R3-1:R2$$$V2.0) . Output its Intrinsic activity only.
47%

###

# Assayed System: Neuropeptide Y receptor type 2 (Homo sapiens, UniProt P49146)
# Sequence (P49146 whole entry): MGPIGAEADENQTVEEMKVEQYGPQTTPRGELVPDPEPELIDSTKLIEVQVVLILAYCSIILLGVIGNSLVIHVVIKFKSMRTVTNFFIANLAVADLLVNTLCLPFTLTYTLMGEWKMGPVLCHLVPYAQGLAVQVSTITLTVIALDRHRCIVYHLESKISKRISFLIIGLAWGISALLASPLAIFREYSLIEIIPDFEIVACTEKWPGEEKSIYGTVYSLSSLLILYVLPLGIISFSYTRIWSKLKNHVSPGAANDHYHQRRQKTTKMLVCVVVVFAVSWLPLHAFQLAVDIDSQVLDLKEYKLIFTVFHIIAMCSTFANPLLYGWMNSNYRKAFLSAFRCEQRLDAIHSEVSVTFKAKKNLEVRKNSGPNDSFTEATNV
# Assay Comment: Displacement of [3H]UR-MK299 from human neuropeptide Y Y2 receptor expressed in CHO cells measured after 90 mins by scintillation counting analysis
# Assay type: cell-based
# Test Context: read-out: Ki
pKi: −log10 of the molar value. Starred links: 1 amine or outer side, 2 acyl side, 3 side chain; linkers in the order of their positions; H or OH if unused. Residues, ends and D or L forms follow the SMILES beside them. Groups on a side chain read outwards from the residue. *: point of attachment. Suc = O=C(CCC(=O)[*:2])[*:1]; NH(CH2)4NH2 = NCCCCN*; CO = O=C([*:1])[*:2]
pKi values by entry

>  <Compound>
N=C(N)NCCC[C@H](NC(=O)CCC(=O)O)C(=O)N[C@@H](Cc1ccc(O)cc1)C(=O)N[C@@H](CCCNC(=N)NC(=O)NCCCCN)C(=O)N[C@@H](Cc1c[nH]c2ccccc12)C(=O)N[C@@H](CCCNC(=N)N)C(=O)N[C@@H](Cc1ccc(O)cc1)C(N)=O (single isomer, unassigned)

>  <Assayed System>
Neuropeptide Y receptor type 2 (Homo sapiens, UniProt P49146)

>  <Result>
< 5.52

$$$$
>  <Compound>
CC(C)C[C@H](NC(=O)[C@H](CCCNC(=N)NC(=O)NCCCCN)NC(=O)[C@H](Cc1c[nH]c2ccccc12)NC(=O)[C@H](CCCNC(=N)N)NC(=O)CCC(=O)O)C(=O)N[C@@H](CCCNC(=N)N)C(=O)N[C@@H](Cc1ccc(O)cc1)C(N)=O

>  <Assayed System>
Neuropeptide Y receptor type 2 (Homo sapiens, UniProt P49146)

>  <Result>
< 5.52

$$$$

// Input: CC(C)C[C@H](NC(=O)[C@H](CCCNC(=N)NC(=O)NCCCCN)NC(=O)[C@H](Cc1ccc(O)cc1)NC(=O)[C@H](CCCCN)NC(=O)CCC(=O)O)C(=O)N[C@@H](CCCNC(=N)N)C(=O)N[C@@H](Cc1ccc(O)cc1)C(N)=O (Suc-KYR([CO-NH(CH2)4NH2])LRY-NH2) . Output its pKi only.
< 5.00

// Input: CC(C)C[C@H](NC(=O)[C@@H]1CCC(=O)NCC(=O)N[C@H](CCCNC(=N)N)C(=O)N[C@@H](CCCNC(=N)N)C(=O)N1)C(=O)N[C@@H](CCCNC(=N)N)C(=O)N[C@@H](Cc1ccc(O)cc1)C(N)=O . Output its pKi only.
< 5.52

// Input: CC(C)C[C@H](NC(=O)[C@@H]1CCCNC(=N)NC(=O)NCCCNC(=O)CCC(=O)N[C@@H](CCCNC(=N)N)C(=O)N[C@@H](Cc2ccc(O)cc2)C(=O)N1)C(=O)N[C@@H](CCCNC(=N)N)C(=O)N[C@@H](Cc1ccc(O)cc1)C(N)=O . Output its pKi only.
< 5.52
